target: MAGI2_4, Q86UL8; assay: holdup assay; parameters: key: below the threshold = too weak to quantify, mostly under pKd 3.1 to 4; settings: plain residues with an end cap or a label only (N-terminal biotin on a linker: ado-ado)
Sequence (Q86UL8 772-865): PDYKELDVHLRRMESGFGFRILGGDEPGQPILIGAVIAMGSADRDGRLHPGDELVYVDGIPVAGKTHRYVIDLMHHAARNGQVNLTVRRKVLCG
Below, each entry is listed alongside its reported pKd.

[
  {
    "Binder": "PLPPEEESWV [GAS2L2, Q8NHY3]",
    "pKd": 4.07
  },
  {
    "Binder": "PEKVSNTTVV [IGSF5, Q9NSI5]",
    "pKd": 3.7
  },
  {
    "Binder": "NTALVESEDL [PALLS, Q8WX93]",
    "pKd": 3.59
  },
  {
    "Binder": "NISARRFTLC [FAM167B, Q9BTA0]",
    "pKd": 3.63
  }
]

Data credit: paper PMC9482650
